The origin of these recorded values is patent US20130230533A1.

- targetOrSystem: T1, Monomeric human CD48-mmH (human)
- T1 construct: also called soluble CD48 expressed with a myc-myc-hexa-histidine C-terminal tag [mmH]
- T1 chain: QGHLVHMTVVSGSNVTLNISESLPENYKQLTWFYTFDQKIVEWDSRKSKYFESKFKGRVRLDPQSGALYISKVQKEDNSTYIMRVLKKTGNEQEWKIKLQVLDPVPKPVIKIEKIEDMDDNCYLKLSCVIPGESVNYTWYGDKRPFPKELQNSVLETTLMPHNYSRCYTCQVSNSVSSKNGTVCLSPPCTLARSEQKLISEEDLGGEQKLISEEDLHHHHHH
- protocolSummary: SPR (Biacore T100), 25 C, antibody captured by anti-Fc, monomeric CD48-mmH in solution
Property: pKd; scope: individual binders
The meaning of pKd here: minus log10 of the concentration in molar units.

Examples from the recorded data:
[
  {
    "binder": "H4H1778P (antibody, human IgG4, V domains shown, Human IgG4 Fc (prefix H4H)) VH: QVQLVESGGGVVQPGRSLRLSCAASGFTFSNYGMHWVRQAPGKGLEWVAVIWYDESSKYYTDSVKGRFTISRDNSQNTLYLQMTSLRAEDTAVYYCARDRWTYSHYFEYWGQGTLVTVSS VL: DIQMTQSPSSVSASVGDRVTITCRASQGISSWVAWYQQKPGKAPKLLIYAASSLQSGVPSRFSGSGSGTDFTLTISSLQPEDFATYYCQQANSFPRTFGQGTKVEIK",
    "pKd": 9.32
  },
  {
    "binder": "H4H1781P (antibody, human IgG4, V domains shown, Human IgG4 Fc (prefix H4H)) VH: QVQLVESGGGVVQPGRSLRLSCAASGFTFSNYGMHWVRQAPGKGLEWVAVIWYDDSNKNYADSVKGRFTISRDNSKNTLYLQMNSLRVEDTAVYYCARDRWTYSHFFEYWGQGTLVTVSS VL: DIQMTQSPSSVSASVGDRVTITCRASQGISSWLAWYQQKPGKAPNLLIYAASSLQSGVPSRFGGSGSGTDFSLTISGLQPEDFATYYCQQANSFPRTFGQGTKVEIK",
    "pKd": 9.71
  }
]

Let us examine a further case.
[in] For the binder shown here, H4H1763N (antibody, human IgG4, V domains shown, Human IgG4 Fc (prefix H4H)) VH: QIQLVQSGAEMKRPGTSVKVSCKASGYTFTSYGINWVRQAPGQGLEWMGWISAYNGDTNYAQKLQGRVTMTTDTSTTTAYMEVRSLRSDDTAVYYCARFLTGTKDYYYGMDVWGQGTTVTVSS VL: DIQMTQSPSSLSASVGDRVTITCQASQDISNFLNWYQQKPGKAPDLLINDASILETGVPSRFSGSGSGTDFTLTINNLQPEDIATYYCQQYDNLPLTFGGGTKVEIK , give the reported pKd.
[out] 8.09
